target: Multidrug resistance-associated protein 1 (Homo sapiens, UniProt P33527); assay: Inhibition of human MRP1 expressed in MDCK2 cells assessed as increase in intracellular CMF fluorescence by CMFDA assay; type: cell-based; details: mdck-ii
Sequence (P33527 whole entry): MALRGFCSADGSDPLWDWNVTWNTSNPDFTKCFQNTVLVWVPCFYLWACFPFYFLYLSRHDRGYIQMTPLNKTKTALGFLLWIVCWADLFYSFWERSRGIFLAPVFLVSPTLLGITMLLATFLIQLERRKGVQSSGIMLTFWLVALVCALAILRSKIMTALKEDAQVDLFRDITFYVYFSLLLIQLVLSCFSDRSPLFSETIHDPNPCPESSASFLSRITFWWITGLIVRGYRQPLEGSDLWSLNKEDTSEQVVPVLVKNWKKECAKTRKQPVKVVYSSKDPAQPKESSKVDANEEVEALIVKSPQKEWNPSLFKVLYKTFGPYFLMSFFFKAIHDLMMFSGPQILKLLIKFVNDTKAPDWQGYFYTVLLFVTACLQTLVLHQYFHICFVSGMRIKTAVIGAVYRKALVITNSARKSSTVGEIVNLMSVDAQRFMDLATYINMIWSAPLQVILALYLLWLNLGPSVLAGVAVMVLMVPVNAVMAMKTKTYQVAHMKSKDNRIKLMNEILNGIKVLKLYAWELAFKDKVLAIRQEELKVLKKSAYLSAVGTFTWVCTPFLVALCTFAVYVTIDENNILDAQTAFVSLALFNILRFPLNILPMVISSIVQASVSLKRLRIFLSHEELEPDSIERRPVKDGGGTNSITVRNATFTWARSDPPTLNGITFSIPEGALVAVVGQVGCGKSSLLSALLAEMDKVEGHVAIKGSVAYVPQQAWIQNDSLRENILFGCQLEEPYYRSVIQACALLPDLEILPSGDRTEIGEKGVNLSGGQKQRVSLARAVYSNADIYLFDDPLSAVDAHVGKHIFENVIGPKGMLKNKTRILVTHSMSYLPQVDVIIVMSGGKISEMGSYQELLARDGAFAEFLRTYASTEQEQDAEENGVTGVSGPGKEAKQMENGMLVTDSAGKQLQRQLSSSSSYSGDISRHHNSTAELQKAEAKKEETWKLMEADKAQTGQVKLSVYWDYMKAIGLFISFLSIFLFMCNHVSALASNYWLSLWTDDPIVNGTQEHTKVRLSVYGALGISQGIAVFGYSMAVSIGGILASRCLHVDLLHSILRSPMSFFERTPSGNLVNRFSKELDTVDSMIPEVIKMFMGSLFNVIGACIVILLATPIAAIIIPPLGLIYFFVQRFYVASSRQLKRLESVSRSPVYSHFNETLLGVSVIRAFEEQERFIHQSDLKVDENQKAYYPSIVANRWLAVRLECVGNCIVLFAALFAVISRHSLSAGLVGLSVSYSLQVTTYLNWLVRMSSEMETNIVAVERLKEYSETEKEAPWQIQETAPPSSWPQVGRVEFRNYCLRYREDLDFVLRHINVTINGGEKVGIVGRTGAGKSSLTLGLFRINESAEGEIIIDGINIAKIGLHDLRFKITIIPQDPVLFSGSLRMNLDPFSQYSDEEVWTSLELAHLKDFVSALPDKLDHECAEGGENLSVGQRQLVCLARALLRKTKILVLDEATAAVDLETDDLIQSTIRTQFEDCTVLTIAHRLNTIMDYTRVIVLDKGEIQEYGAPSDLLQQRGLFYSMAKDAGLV
measuredParameter: Activity

Here are 6 compounds together with their reported answers.
Task: In one line, give reported Activity of the entry Nc1nc(NC2CC2)c2ncn([C@H]3C=C[C@@H](CO)C3)c2n1 .
Output: Dose-dependent effect

Task: In one line, give reported Activity of the entry Nc1ccn([C@@H]2CS[C@H](CO)O2)c(=O)n1 .
Output: Dose-dependent effect

Task: In one line, give reported Activity of the entry O=C1Nc2ccc(Cl)cc2[C@@](C#CC2CC2)(C(F)(F)F)O1 .
Output: Dose-dependent effect

Task: In one line, give reported Activity of the entry C[C@H](Cn1cnc2c(N)ncnc21)OCP(=O)(O)O [TENOFOVIR ANHYDROUS] .
Output: Dose-dependent effect

Task: In one line, give reported Activity of the entry Nc1nc(=O)n([C@@H]2CS[C@H](CO)O2)cc1F .
Output: Dose-dependent effect

Task: In one line, give reported Activity of the entry Cc1ccnc2c1NC(=O)c1cccnc1N2C1CC1 .
Output: Dose-dependent effect

Below: the item to evaluate.
Task: In one line, give reported Activity of the entry CC(C)Nc1cccnc1N1CCN(C(=O)c2cc3cc(NS(C)(=O)=O)ccc3[nH]2)CC1 .
Output: Dose-dependent effect
